Every entry's value here was drawn from paper PMC4860851.

Test: recognition of fusion proteins by eight anti-Ncr1 mAbs
Conditions: glycan lost; control: WT Ncr1 Ig

protein: Ncr1: Ncr1 T222A (protein) parent chain: MLPTLTALLCLGLCLSQRINTEKETLPKPIIWAKPSIMVTNGNSVNIWCQGAQSASEYQLYFEGSFFALERPKPSRSMNKVRFFISQMTSHTAGIYTCFYQSGELWSKSSNPLKLVVTGLYDTPNLWVYPRPEVTLGENVTFFCQLKTATSKFFLLKERGSNHIQNKYGNIQAEFPMGPVTRAHRGTYRCFGSYNDYAWSFPSEPVTLLITGGVENSSLAPTDPTSSLDYWEFDLSTNESGLQKDSAFWDHTTQNLIRIGLACIILITLVWLLTEDWLSKRKDHEEANRLTNWECRRRWRMQHYFEEEQRNAISMMELKATPGAL
stability_or_folding: no change

protein: Ncr1: Ncr1 T225A (protein) parent chain: MLPTLTALLCLGLCLSQRINTEKETLPKPIIWAKPSIMVTNGNSVNIWCQGAQSASEYQLYFEGSFFALERPKPSRSMNKVRFFISQMTSHTAGIYTCFYQSGELWSKSSNPLKLVVTGLYDTPNLWVYPRPEVTLGENVTFFCQLKTATSKFFLLKERGSNHIQNKYGNIQAEFPMGPVTRAHRGTYRCFGSYNDYAWSFPSEPVTLLITGGVENSSLAPTDPTSSLDYWEFDLSTNESGLQKDSAFWDHTTQNLIRIGLACIILITLVWLLTEDWLSKRKDHEEANRLTNWECRRRWRMQHYFEEEQRNAISMMELKATPGAL
stability_or_folding: no change
